Provenance of the data: patent US20100041597A1

molecular target: T1, PKC-α (purified isoform) (Homo sapiens (Human), UniProt P17252 2-672); experiment: competitive ELISA on purified PKC-α vs anti-PKC-α Ab; PRE 50 µM
T1 construct: also called PKC-alpha; PKCalpha
REPORTED_ENDPOINT: binding capacity (%)

Data request: Tell us which binding capacity (%) value is on record for Ac-KDAQNLI-NH2 (Synthetic peptide; also called peptide PRE 12; Ac-KDAQNLI-NH2) [PRE 12]
Data returned: 3.29%

Could you report binding capacity (%) for every entry in the following list?
1. Ac-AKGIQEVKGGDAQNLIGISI-NH2 (Synthetic peptide; also called peptide PRE 3) [PRE 3]
2. Ac-ISIGILQNADK-NH2 (Synthetic peptide (retro form of PRE 4); also called peptide PRE 7) [PRE 7]
3. Ac-KDAQNLIGISI-NH2 (Synthetic peptide; also called peptide PRE 4) [PRE 4]

Data returned:
1: 17.5%; 2: 0%; 3: 6.46%

Data request: Tell us which binding capacity (%) value is on record for Ac-RDAQNLIGISI-NH2 (Synthetic peptide; also called peptide PRE 11) [PRE 11]
Data returned: 0%
